Data provenance is patent US20220025010A1.

Biological target: T1, human GIP receptor (human, UniProt P48546 22-466)
T1 sequence (looked up): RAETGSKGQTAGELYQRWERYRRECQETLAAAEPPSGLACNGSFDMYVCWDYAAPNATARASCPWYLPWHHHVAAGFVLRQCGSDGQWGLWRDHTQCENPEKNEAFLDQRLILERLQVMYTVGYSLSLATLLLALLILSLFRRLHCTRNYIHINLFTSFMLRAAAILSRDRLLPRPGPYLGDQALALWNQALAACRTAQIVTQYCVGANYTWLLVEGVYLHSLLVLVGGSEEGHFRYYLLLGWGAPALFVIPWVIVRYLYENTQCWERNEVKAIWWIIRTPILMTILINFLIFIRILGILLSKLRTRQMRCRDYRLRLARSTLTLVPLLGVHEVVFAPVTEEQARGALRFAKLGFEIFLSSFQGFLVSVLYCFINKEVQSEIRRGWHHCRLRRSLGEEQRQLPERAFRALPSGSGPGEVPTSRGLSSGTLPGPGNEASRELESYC
Test: cell-based or functional assay
*1 amine or outer side, *2 acyl side, *3 side chain or, on linkers, in order; H or OH if unused. Where no end group is shown, it is not given here. Side-chain parts run from the residue outwards. [ ]: non-standard residue; d: D form. The star is where a group is joined. C18 diacid = O=C(O)CCCCCCCCCCCCCCCCC(=O)*; C16 diacid = O=C(O)CCCCCCCCCCCCCCC(=O)*; γGlu = O=C(O)[C@H](CCC(=O)[*:2])N[*:1]; pGlu = O=C1CC[C@@H](C(=O)O)N1; AEEA = NCCOCCOCC(=O)O
I'd appreciate it if you marked entries YES when DiscoveRx cAMP antagonism log IC50 is lower than -8 log M and NO when it is not.

Here's what some known entries look like.
binder="[pGlu]GTFISDYSIAMDRIK([AEEA-AEEA-γGlu-C18 diacid])QQDFVNWLLAQR-NH2 [AT381]" category=NO
binder="[pGlu]GTFISDYSIAMDRIK(C16 diacid)QQDFVNWLLAQR-NH2 [AT390]" category=YES
binder="EGTFISDYSIAMDRIK([AEEA-AEEA-AEEA-γGlu-C16 diacid])QQDFVNWLLAQR-NH2 (not fully specified (residue 1)) [AT375]" category=NO

is_below(DiscoveRx cAMP antagonism log IC50, -8 log M) for EGTFISDYSIAMDRIK([AEEA-γGlu-C18 diacid])QQDFVNWLLAQR-NH2 (not fully specified (residue 1)) [AT376] ?
NO
